# assay_details: Pharmacokinetic study of 5 compounds in rat plasma after oral administration of Zuogui Pill extract (HPLC-MS/MS, noncompartmental analysis)
# Assay type: in vivo, Female Sprague-Dawley rats
# condition_parameters: osteoporotic rats with kidney-yin-deficiency, oral Zuogui Pill extract 1.5 mL/100 g, n = 6
measured_property: AUC0–t

compound	AUC0–t
COC(=O)C1=CO[C@@H](O[C@@H]2O[C@H](CO)[C@@H](O)[C@H](O)[C@H]2O)[C@@H]2[C@H](C)O[C@@H](O)C[C@H]12 [Morroniside, morroniside]	3764.53 ± 842.38^∗∗ h∗ng/mL
O=C(/C=C/c1ccc(O)c(O)c1)O[C@@H]1C[C@](O)(C(=O)O)C[C@@H](O)[C@H]1O	218.55 ± 23.29^∗∗ h∗ng/mL
OCC1=C[C@@H](O)[C@@H]2C=CO[C@@H](O[C@@H]3O[C@H](CO)[C@@H](O)[C@H](O)[C@H]3O)[C@H]12	201.40 ± 32.43^∗∗ h∗ng/mL
COC(=O)C1=CO[C@@H](O[C@@H]2O[C@H](CO)[C@@H](O)[C@H](O)[C@H]2O)[C@@H]2[C@@H](C)[C@@H](O)C[C@H]12	41028.61 ± 6356.26^∗∗ h∗ng/mL

Q. AUC0–t for O=Cc1ccc(O)c(O)c1 ?
A. 27.48 ± 3.10^∗∗ h∗ng/mL

Just for reference, paper PMC10045483 is where these values come from.
